Hey, just so you know, these numbers are from patent US8637499B2.

experimental-system: mTORC1 (mTOR/GbL/Raptor) (Homo sapiens, UniProt P42345)
method-description: mTOR/GbL/Raptor (mTORC1) ELISA Assay
Type: biochemical
run-conditions: 0.2 nM mTORC1, 10 μM ATP, 50 nM NHis-tagged 4E-BP1; phosphorylation of 4E-BP1; read-out: IC50
attribute-measured: IC50

[
  {
    "compound": "Cc1nc2ccc(-c3ccc4c(c3)CN(C(=O)N3CCC(c5ccccc5)CC3)CCO4)cc2[nH]1 [Compound 170]",
    "experimental-system": "mTORC1 (mTOR/GbL/Raptor) (Homo sapiens, UniProt P42345)",
    "attribute-measured": "IC50",
    "endpoint-value": "50 to 250 nM"
  },
  {
    "compound": "Cc1nc2ccc(-c3ccc4c(c3)CN(C(=O)N3CC=C(c5ccccc5)CC3)CCO4)cc2[nH]1 [Compound 157]",
    "experimental-system": "mTORC1 (mTOR/GbL/Raptor) (Homo sapiens, UniProt P42345)",
    "attribute-measured": "IC50",
    "endpoint-value": "50 to 250 nM"
  },
  {
    "compound": "O=C1CCN(C(=O)N2CCOc3ccc(-c4ccc(-c5ncc[nH]5)cc4)cc3C2)C(c2ccc(F)cc2)C1 (stereo not shown) [Compound 54]",
    "experimental-system": "mTORC1 (mTOR/GbL/Raptor) (Homo sapiens, UniProt P42345)",
    "attribute-measured": "IC50",
    "endpoint-value": "≤ 50 nM"
  },
  {
    "compound": "Cc1nc2ccc(-c3ccc4c(c3)CN(C(=O)N3CCCCC3c3cc(F)c(F)c(F)c3)CCO4)cc2[nH]1 (stereo not shown) [Compound 129]",
    "experimental-system": "mTORC1 (mTOR/GbL/Raptor) (Homo sapiens, UniProt P42345)",
    "attribute-measured": "IC50",
    "endpoint-value": "≤ 50 nM"
  }
]

* * *

experimental-system: mTORC1 (mTOR/GbL/Raptor) (Homo sapiens, UniProt P42345)
method-description: mTOR/GbL/Raptor (mTORC1) ELISA Assay
Type: biochemical
run-conditions: 0.2 nM mTORC1, 10 μM ATP, 50 nM NHis-tagged 4E-BP1; phosphorylation of 4E-BP1; read-out: IC50
pIC50: −log10 of the molar value.

[
  {
    "molecule": "Cc1nc2ccc(-c3ccc4c(c3)CN(C(=O)N3CCN(c5ccccc5)CC3c3ccccc3)CCO4)cc2[nH]1 (centres unmarked)",
    "pIC50": "6.15 to 6.60"
  },
  {
    "molecule": "Cc1nc2ccc(-c3ccc4c(c3)CN(C(=O)N3CCN(c5ccc(F)cc5)CC3)CCO4)cc2[nH]1",
    "pIC50": "5.59 to 6.15"
  },
  {
    "molecule": "COC(=O)Nc1nc2ncc(-c3ccc4c(c3)CN(C(=O)N3CCC(CCF)CC3)CCO4)cc2[nH]1",
    "pIC50": "≥ 7.30"
  },
  {
    "molecule": "Cc1nc2ccc(-c3ccc4c(c3)CN(C(=O)N3CCCCC3c3ccc(N(C)C)cc3)CCO4)cc2[nH]1 (centres unmarked)",
    "pIC50": "5.59 to 6.15"
  },
  {
    "molecule": "Cc1nc2ccc(-c3ccc4c(c3)CN(C(=O)N3CCC(S(C)(=O)=O)CC3)CCO4)cc2[nH]1",
    "pIC50": "6.60 to 7.30"
  },
  {
    "molecule": "O=C1CCN(C(=O)N2CCOc3ccc(-c4ccc(-c5ncc[nH]5)cc4)cc3C2)C(c2ccc(F)c(F)c2)C1 (centres unmarked)",
    "pIC50": "≥ 7.30"
  },
  {
    "molecule": "Cc1nc2ccc(-c3ccc4c(c3)CN(C(=O)N3CCCCC3c3ccc(C)c(F)c3)CCO4)cc2[nH]1 (centres unmarked)",
    "pIC50": "≥ 7.30"
  },
  {
    "molecule": "COC(=O)Nc1nc2ccc(-c3ccc4c(c3)CN(C(=O)N3[C@@H]5CC[C@H]3C[C@](O)(C(F)(F)F)C5)CCO4)cc2[nH]1",
    "pIC50": "≥ 7.30"
  },
  {
    "molecule": "CCNc1nc2ccc(-c3ccc4c(c3)CN(C(=O)N3CCC(CF)CC3)CCO4)cc2[nH]1",
    "pIC50": "≥ 7.30"
  },
  {
    "molecule": "O=C1CCN(C(=O)N2CCOc3ccc(-c4ccc(-c5ncc[nH]5)cc4)cc3C2)[C@H](c2ccc(F)cc2)C1",
    "pIC50": "≥ 7.30"
  },
  {
    "molecule": "Cc1nc2ccc(-c3ccc4c(c3)CN(C(=O)N3CCc5ccccc5C3)CCO4)cc2[nH]1",
    "pIC50": "6.60 to 7.30"
  },
  {
    "molecule": "Cc1nc2ccc(-c3ccc4c(c3)CN(C(=O)N3CCCCCCC3)CCO4)cc2[nH]1",
    "pIC50": "5.59 to 6.15"
  },
  {
    "molecule": "O=C1CCN(C(=O)N2CCOc3ccc(-c4ccc5[nH]c(NCCF)nc5c4)cc3C2)C(c2cccc(F)c2)C1 (centres unmarked)",
    "pIC50": "≥ 7.30"
  },
  {
    "molecule": "Cc1nc2ccc(-c3ccc4c(c3)CN(C(=O)N3CC5CN(c6ccccc6)CC5C3)CCO4)cc2[nH]1 (centres unmarked)",
    "pIC50": "6.15 to 6.60"
  },
  {
    "molecule": "CC(=O)Nc1ncc(-c2ccc3c(c2)CN(C(=O)N2CCC(C)CC2)CCO3)s1",
    "pIC50": "6.15 to 6.60"
  },
  {
    "molecule": "Cc1nc2ccc(-c3ccc4c(c3)CN(C(=O)N3CCCCC3c3ccc(F)cc3)CCO4)cc2[nH]1 (centres unmarked)",
    "pIC50": "≥ 7.30"
  },
  {
    "molecule": "COC(=O)Nc1nc2ccc(-c3ccc4c(c3)CN(C(=O)N3C5CCC3CC(=O)C5)CCO4)cc2[nH]1",
    "pIC50": "6.60 to 7.30"
  },
  {
    "molecule": "Cc1nc2ccc(-c3ccc4c(c3)CN(C(=O)N3CCCC[C@@H]3c3ccccc3)CCO4)cc2[nH]1",
    "pIC50": "≥ 7.30"
  },
  {
    "molecule": "Nc1nc2ccc(-c3ccc4c(c3)CN(C(=O)N3CCC(CF)CC3)CCO4)cc2[nH]1",
    "pIC50": "≥ 7.30"
  },
  {
    "molecule": "Cc1nc2ccc(-c3ccc4c(c3)CN(C(=O)N3CCN(Cc5c(F)cccc5Cl)CC3)CCO4)cc2[nH]1",
    "pIC50": "6.15 to 6.60"
  },
  {
    "molecule": "Cc1nc2ccc(-c3ccc4c(c3)CN(C(=O)N(Cc3ccccc3)C(C)C)CCO4)cc2[nH]1",
    "pIC50": "6.60 to 7.30"
  },
  {
    "molecule": "Cc1nc2ccc(-c3ccc4c(c3)CN(C(=O)N3CCCC(c5ccccc5)C3)CCO4)cc2[nH]1 (centres unmarked)",
    "pIC50": "6.15 to 6.60"
  },
  {
    "molecule": "Cc1nc2ccc(-c3ccc4c(c3)CN(C(=O)N3CCC(C)(C(N)=O)CC3)CCO4)cc2[nH]1",
    "pIC50": "6.60 to 7.30"
  },
  {
    "molecule": "CC1CCN(C(=O)N2CCOc3ccc(-c4ccc(N)nn4)cc3C2)CC1",
    "pIC50": "5.59 to 6.15"
  },
  {
    "molecule": "COC(=O)Nc1nc2ncc(-c3ccc4c(c3)CN(C(=O)N3CCC(=O)CC3c3ccc(F)cc3)CCO4)cc2[nH]1 (centres unmarked)",
    "pIC50": "6.60 to 7.30"
  },
  {
    "molecule": "Cc1nc2ccc(-c3ccc4c(c3)CN(C(=O)N3CCCCC3c3ccc(F)c(C)c3)CCO4)cc2[nH]1 (centres unmarked)",
    "pIC50": "≥ 7.30"
  },
  {
    "molecule": "Cc1nc2ccc(-c3ccc4c(c3)CN(C(=O)N3CCCCC3c3ccc(F)cc3C)CCO4)cc2[nH]1 (centres unmarked)",
    "pIC50": "5.59 to 6.15"
  },
  {
    "molecule": "Cc1nc2ccc(-c3ccc4c(c3)CN(C(=O)N3CCCCC3c3cccc(Cl)c3)CCO4)cc2[nH]1 (centres unmarked)",
    "pIC50": "≥ 7.30"
  },
  {
    "molecule": "Cc1nc2ccc(-c3ccc4c(c3)CN(C(=O)N3CCCCC3Cc3ccccc3)CCO4)cc2[nH]1 (centres unmarked)",
    "pIC50": "6.15 to 6.60"
  }
]

* * *

experimental-system: mTORC1 (mTOR/GbL/Raptor) (Homo sapiens)
method-description: mTOR/GbL/Raptor (mTORC1) ELISA Assay
Type: biochemical
run-conditions: 0.2 nM mTORC1, 10 μM ATP, 50 nM NHis-tagged 4E-BP1; phosphorylation of 4E-BP1; read-out: IC50

[
  {
    "compound": "CCC1CCCN(C(=O)N2CCOc3ccc(-c4ccc5nc(C)[nH]c5c4)cc3C2)C1 (stereo not shown)",
    "experimental-system": "mTORC1 (mTOR/GbL/Raptor) (Homo sapiens)",
    "IC50": "50 to 250 nM"
  },
  {
    "compound": "Cc1nc2ccc(-c3ccc4c(c3)CN(C(=O)N3CCC(O)(c5ccc(C(F)(F)F)cc5)CC3)CCO4)cc2[nH]1",
    "experimental-system": "mTORC1 (mTOR/GbL/Raptor) (Homo sapiens)",
    "IC50": "250 to 700 nM"
  },
  {
    "compound": "CC1CCN(C(=O)N2CCOc3ccc(-c4cnc(N)cn4)cc3C2)CC1",
    "experimental-system": "mTORC1 (mTOR/GbL/Raptor) (Homo sapiens)",
    "IC50": "700 to 2600 nM"
  },
  {
    "compound": "O=C1CCN(C(=O)N2CCOc3ccc(-c4ccc(-c5ncc[nH]5)cc4)cc3C2)C(c2cccc(F)c2)C1 (stereo not shown)",
    "experimental-system": "mTORC1 (mTOR/GbL/Raptor) (Homo sapiens)",
    "IC50": "≤ 50 nM"
  },
  {
    "compound": "CCCCN(Cc1ccccc1)C(=O)N1CCOc2ccc(-c3ccc4nc(C)[nH]c4c3)cc2C1",
    "experimental-system": "mTORC1 (mTOR/GbL/Raptor) (Homo sapiens)",
    "IC50": "250 to 700 nM"
  },
  {
    "compound": "Cc1nc2ccc(-c3ccc4c(c3)CN(C(=O)N3CCCCC3c3cc(F)cc(F)c3)CCO4)cc2[nH]1 (stereo not shown)",
    "experimental-system": "mTORC1 (mTOR/GbL/Raptor) (Homo sapiens)",
    "IC50": "≤ 50 nM"
  },
  {
    "compound": "O=C1CCN(C(=O)N2CCOc3ccc(-c4ccc5[nH]c(NCC(F)(F)F)nc5c4)cc3C2)C(c2cccc(F)c2)C1 (stereo not shown)",
    "experimental-system": "mTORC1 (mTOR/GbL/Raptor) (Homo sapiens)",
    "IC50": "≤ 50 nM"
  }
]
